Test: chemical genetic growth profiling, strain panel (AID 1159580);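 also: tested at 20 µM; growth read once vehicle control cultures reached saturation at 30 °C; 1 = growth at the plate median or of vehicle wells; lower values mean less growth of the strain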
Conditions: S. cerevisiae deletion strains, growth OD, locus YDR502C, strain sam2, hits give low values
Out of some 5,500 compounds screened, about 2,000 (36%) were called active. Inconclusive results (about 18%) are left out. The list shows a part of the results.
Threshold 1. normalized growth below it: fulfilled. normalized growth at it or above: not fulfilled.

# example entries with known answers
{"columns": ["compound", "category"],
 "data": [
  ["O=C(O)c1cc(O)c2c(c1)C(=O)c1cc(O)cc(O)c1C2=O", "fulfilled"],
  ["COc1ccc([C@@H](C)C(=O)c2ccc(O)cc2O)cc1", "fulfilled"],
  ["Cc1cc(O)c2c(c1)C(=O)c1cc(O)cc(O)c1C2=O", "fulfilled"]
]}

Bench note: check whether CC1(C)CC23C(=O)CCC(O)C2(C)CCC13 (stereo unspecified) shows normalized growth below 1
not fulfilled

----------
Experiment: chemical genetic growth profiling, strain panel (AID 1159580);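 also: tested at 20 µM; growth read once vehicle control cultures reached saturation at 30 °C; 1 = growth at the plate median or of vehicle wells; lower values mean less growth of the strain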
Conditions: S. cerevisiae deletion strains, growth OD, locus YNL322C, strain KRE1
The campaign covered roughly 5,500 compounds. About 2,000 (36%) were called active. Roughly 18% stayed inconclusive and do not appear here. Cut-off read from the data, not from the text of the source: active = normalized growth mostly below about 0.91 (no sharp cut-off); inconclusive = no clear call, values can overlap the other calls; inactive = mostly above about 0.92. Some of the results follow.
Field 'call' accepts True (active), False (inactive)

{"columns": ["compound", "category"],
 "data": [
  ["O=c1c(O)c(-c2ccccc2)oc2ccc3occc3c12", "False"],
  ["Cc1ccc(S(=O)(=O)N2CCN(CCOc3ccccc3)CC2)cc1", "False"],
  ["O[C@H]1[C@H](O)[C@@H](O)C2OC[C@H]1O2", "False"],
  ["COC[C@H]1OC(=O)c2coc3c2[C@@]1(C)C1=C(C3=O)C2CCC(=O)[C@@]2(C)C[C@H]1OC(C)=O (some centres undefined)", "True"],
  ["CCC1(C2=NCCN2)Cc2ccccc2O1 (centres undefined)", "False"]
]}

What did this assay record as the result for `CC(C)NP(=O)(NC(C)C)OP(=O)(NC(C)C)NC(C)C` ?
False

----------
Below is a list of entries, each paired with its recorded normalized growth value.
Experiment: chemical genetic growth profiling, strain panel (AID 1159580);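 also: tested at 20 µM; growth read once vehicle control cultures reached saturation at 30 °C; 1 = growth at the plate median or of vehicle wells; lower values mean less growth of the strain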
Conditions: S. cerevisiae deletion strains, growth OD, locus YML032C, strain rad52, hits give low values
Hit rate of the full screen: of about 5,500 compounds, about 2,000 (36%) were called active. Roughly 18% stayed inconclusive and do not appear here. Some of the results follow.
The answer should be a number; do not append a unit.

Below, 5 molecules whose answers are already recorded.
{"columns": ["molecule", "normalized growth"],
 "data": [
  ["CC(=O)O[C@@H]1C2CC[C@@H]3C1(C[C@@H](O)[C@@]1(O)[C@@H](C[C@H](O)C1(C)C)[C@]3(C)O)C[C@@]2(C)O (stereo partly specified)", 0.99],
  ["CN1CCCCC1c1ccc(-c2cccnc2)nc1 (stereo unspecified)", 0.997],
  ["Cc1c(NC(C)C)c(=O)n(-c2ccccc2)n1C", 0.964],
  ["CC(=O)OC1CCC23CC1(C)CCC2C(C)(C)CC3OC(C)=O (stereo unspecified)", 1.01],
  ["O=C(O)CC[N+](=O)[O-]", 0.973]
]}

Look at this molecule and give its reported normalized growth. CC(C)C1CCC(C(=O)N[C@@H](Cc2ccccc2)C(=O)O)CC1 (stereo partly specified)
1.02
